Measured Specific activity (activity/1000 daltons) of individual entries
tested on: Pre-adipocyte stem cells, bone marrow mesenchymal stem cells and fibroblasts; test: Assay 2 to measure adipogenesis (dexamethasone/insulin/indomethacin induction, Oil Red O or BODIPY staining); assay type: cell-based; settings: Assay 2
Return type: number; implicit unit activity/1000 daltons.

SQLKSEVSK [9mer] | 2.6

// query Requested field: Specific activity (activity/1000 daltons). Item: KLKDENSQLKSEVSK [peptide B]
// result 1.7

// query Requested field: Specific activity (activity/1000 daltons). Item: LKSEVSK [7mer]
// result 3.4

// query Requested field: Specific activity (activity/1000 daltons). Item: KSEVSK [6mer]
// result 5.6
